experiment: yeast display, Sf9 membrane polyspecificity reagent, FACS + sequencing; frameworks hold sequencing errors
QUANTITY NAME: polyreactivity (PSR sort gate)

Some solved cases for reference:
QVQLVESGGGLVQAGGSLRLSCAASGRIFVIYGMGWYRQAPGKERELVAAIRWTGGSTYFADSVKGRFTISRDNAKNTVYLQMNSLKPEDTAVYYCNAGSDRAIWPTHDYWGQGTQVTVSS low polyreactivity
QVQLVESGGGLVQAGGSLRLSCAASGSTFSRYAMGWYRQAPGKERELVAAISWRGGRTYYADSVKGRFTISRDNAKNTVYLQMNSLKPADTAVYYCNAVSYFTSQRYDYWGQGTQVTVSS high polyreactivity
QVQLVETGGGLVQAGGSLRLSCAASGRIIRYNAMGWYSQAPGKERELVAAISTRGGNTYYADSVKGRFTISRDNAKNTVYLQMNSLKPEDTAVYYCNARSSLPYNYWGQGTQVTVSS high polyreactivity
QVQLVESGGGLVQAGGSLRLSCAASGRIFRIYAMGWYRQAPGKERELVARITYSGGSTYYADSVKGRFTISRDNAKNTVYLQMNSLKPEDTAVYFCAADWLGYQYGYWGQGTQVTVSS low polyreactivity

Please look at the following sequence next.
*Q* Indicate the recorded polyreactivity (PSR sort gate) value for this sequence: `QVQRVESGGGLVQAGGSLRLSCAASGITFRTNTMGWYRQAPGKERELVAAITWDAGSTYYADSVKGRFTISRDNAKHTVYVQMKSLKPEDTAVYYCAARLSYLYGLYPYYYWGQGTQLTVSS`
*A* high polyreactivity
